Task for the reader: assign each of the following molecules its reported EC50.
Target: human mGlu5a receptor (Homo sapiens (Human), UniProt P41594)
Sequence (P41594 other isoform, or with tags, fused parts or gaps): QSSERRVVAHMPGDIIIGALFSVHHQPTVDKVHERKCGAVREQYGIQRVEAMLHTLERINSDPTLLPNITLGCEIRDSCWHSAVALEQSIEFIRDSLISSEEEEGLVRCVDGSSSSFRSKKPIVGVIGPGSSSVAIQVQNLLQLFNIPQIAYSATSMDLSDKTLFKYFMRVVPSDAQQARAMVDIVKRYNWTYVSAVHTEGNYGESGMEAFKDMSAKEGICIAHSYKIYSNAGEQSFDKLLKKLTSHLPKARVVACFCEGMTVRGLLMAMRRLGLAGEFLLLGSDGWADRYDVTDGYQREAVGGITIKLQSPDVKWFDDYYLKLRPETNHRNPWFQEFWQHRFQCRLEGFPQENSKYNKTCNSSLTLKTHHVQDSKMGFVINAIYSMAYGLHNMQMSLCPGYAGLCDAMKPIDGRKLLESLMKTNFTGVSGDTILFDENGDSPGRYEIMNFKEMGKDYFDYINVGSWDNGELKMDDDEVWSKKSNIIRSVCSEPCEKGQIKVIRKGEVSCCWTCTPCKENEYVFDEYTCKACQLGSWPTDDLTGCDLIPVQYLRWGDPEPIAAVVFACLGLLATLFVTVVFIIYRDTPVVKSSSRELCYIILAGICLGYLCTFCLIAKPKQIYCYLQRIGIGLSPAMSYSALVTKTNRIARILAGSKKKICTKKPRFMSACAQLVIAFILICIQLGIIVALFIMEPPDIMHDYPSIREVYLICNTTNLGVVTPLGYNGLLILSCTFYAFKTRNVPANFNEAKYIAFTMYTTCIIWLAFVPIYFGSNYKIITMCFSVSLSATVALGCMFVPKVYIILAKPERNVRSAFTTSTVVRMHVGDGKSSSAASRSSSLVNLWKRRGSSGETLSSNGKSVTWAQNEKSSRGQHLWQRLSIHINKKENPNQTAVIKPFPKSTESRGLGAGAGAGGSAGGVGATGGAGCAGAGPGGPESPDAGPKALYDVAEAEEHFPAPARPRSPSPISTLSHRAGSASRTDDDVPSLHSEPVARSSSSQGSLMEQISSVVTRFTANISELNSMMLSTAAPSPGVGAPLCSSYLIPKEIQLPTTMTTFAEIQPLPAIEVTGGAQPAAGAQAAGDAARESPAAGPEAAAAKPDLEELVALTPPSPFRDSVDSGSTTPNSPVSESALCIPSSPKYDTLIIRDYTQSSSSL
Assay: Intracellular Ca2+ mobilization assay (mGlu5 PAM)
Assay type: cell-based
Settings: HEK-293 cells stably transfected with human mGlu5a; L-glutamate added at EC20 (typically around 80 μM)
Numbers only, in nM.

Completed entries (count: 5):
| molecule | assay_result |
| --- | --- |
| CN1C(=O)[C@@H](c2ccc(C#Cc3ccccc3)cn2)[C@@H]2CCCC[C@@H]21 (racemic) [Example 34] | 185 |
| CN1C(=O)C(c2ccc(C#Cc3cccc(Cl)c3)cn2)CC1(C)C (racemic) | 38 |
| CN1C(=O)[C@@H](c2ccc(C#Cc3ccc(F)cc3)cn2)[C@@H]2CCCC[C@@H]21 | 57 |
| CN1C(=O)[C@H](c2ccc(C#Cc3ccc(F)cc3)cn2)[C@H]2CCCC[C@H]21 | 146 |
| CN1C(=O)C(c2ccc(C#Cc3ccc(F)cc3)cn2)CCC1(C)C (racemic) | 212 |

Batch request: EC50 for each of the following molecules.
1. CN1C(=O)C(c2ccc(C#Cc3ccccc3)cn2)CCC1(C)C (racemic)
2. CN1C(=O)C(c2ccc(C#Cc3cccc(F)c3)cn2)CC1(C)C (racemic)
3. CN1C(=O)[C@H](c2ccc(C#Cc3ccccc3)cn2)[C@H]2CCCC[C@H]21

## Result
1. 113
2. 61
3. 84

* * *

Target: human mGlu5a receptor (Homo sapiens (Human), UniProt P41594)
Experiment: Intracellular Ca2+ mobilization assay (mGlu5 PAM)
Assay type: cell-based
Conditions: maximal response in % of the maximal stimulatory effect obtained with saturating concentrations of L-glutamate; read-out: Eff. (%)
Answer Not met if Emax is under 80%, and Met if it is 80% or more.

| molecule | category_label |
| --- | --- |
| CN1C(=O)[C@H](c2ccc(C#Cc3ccc(F)cc3)cn2)[C@H]2CCCC[C@H]21 | Not met |
| CN1C(=O)[C@@H](c2ccc(C#Cc3cccc(F)c3)cn2)[C@@H]2CCCC[C@@H]21 (racemic) [Example 38] | Not met |
| CN1C(=O)[C@H](c2ccc(C#Cc3ccccc3)cn2)[C@H]2CCCC[C@H]21 | Not met |

--- query ---
## Task Record CN1C(=O)C(c2ccc(C#Cc3cccnc3)cn2)CC1(C)C (racemic) ; criterion: Emax no lower than 80%. Met?
## Result Met

* * *

Task for the reader: assign each of the following compounds its reported EC50.
Molecular target: human mGlu5a receptor (Homo sapiens (Human))
Assay: Intracellular Ca2+ mobilization assay (mGlu5 PAM)
Format: cell-based
Settings: HEK-293 cells stably transfected with human mGlu5a; L-glutamate added at EC20 (typically around 80 μM)
One number for each entry, in nM.

Completed entries (count: 2):
| compound | target_under_test | assay_result |
| --- | --- | --- |
| CN1C(=O)C(c2ccc(C#Cc3cccnc3)cn2)CC1(C)C (racemic) | human mGlu5a receptor (Homo sapiens (Human)) | 981 |
| CN1C(=O)[C@H](c2ccc(C#Cc3cccc(F)c3)cn2)[C@@H]2CCCC[C@@H]21 (racemic) | human mGlu5a receptor (Homo sapiens (Human)) | 141 |

Batch request: EC50 for each of the following compounds.
1. CN1C(=O)C(c2ccc(C#Cc3ccnc(Cl)c3)cn2)CC1(C)C (racemic)
2. CN1C(=O)C(C)(c2ccc(C#Cc3ccccc3)cn2)CC1(C)C (racemic)
3. CN1C(=O)C(c2ccc(C#Cc3ccccc3)cn2)CC1(C)C (racemic)
4. CN1C(=O)[C@@H](c2ccc(C#Cc3ccnc(Cl)c3)cn2)CC1(C)C (single isomer, unassigned)

## Result
88
90
60
65

* * *

Molecular target: human mGlu5a receptor (Homo sapiens (Human))
Test: Intracellular Ca2+ mobilization assay (mGlu5 PAM)
Type: cell-based
Details: maximal response in % of the maximal stimulatory effect obtained with saturating concentrations of L-glutamate; read-out: Eff. (%)
From the text: A monoclonal HEK-293 cell line stably transfected with a cDNA encoding for the human mGlu5a receptor was generated; for the work with mGlu5 Positive Allosteric Modulators (PAMs), a cell line with low receptor expression levels and low constitutive receptor activity was selected to allow the differentiation of agonistic versus PAM activity. […]
Task for the reader: assign each of the following compounds its reported Emax.
Give bare numbers, in %.

Completed entries (count: 5):
| compound | units | Emax |
| --- | --- | --- |
| CN1C(=O)[C@H](c2ccc(C#Cc3cccc(F)c3)cn2)[C@H]2CCC[C@H]21 (single isomer, unassigned) | % | 68 |
| CN1C(=O)C(c2ccc(C#Cc3ccc(F)cc3)cn2)CCC1(C)C (racemic) | % | 96 |
| CN1CCCCC(c2ccc(C#Cc3ccc(F)cc3)cn2)C1=O (racemic) | % | 61 |
| CN1CCCCC(c2ccc(C#Cc3cccc(F)c3)cn2)C1=O (racemic) | % | 69 |
| CN1C(=O)[C@H](c2ccc(C#Cc3cccc(F)c3)cn2)[C@@H]2CCCC[C@@H]21 (racemic) | % | 61 |

Batch request: Emax for each of the following compounds.
1. CN1CCCC[C@H](c2ccc(C#Cc3ccccc3)cn2)C1=O (single isomer, unassigned)
2. CN1C(=O)C(c2ncc(C#Cc3ccc(F)cc3)cn2)CC1(C)C (racemic)

## Result
69
105

* * *

Biological target: human mGlu5a receptor (Homo sapiens (Human))
Assay: Intracellular Ca2+ mobilization assay (mGlu5 PAM)
Format: cell-based
Details: maximal response in % of the maximal stimulatory effect obtained with saturating concentrations of L-glutamate; read-out: Eff. (%)
Description: A monoclonal HEK-293 cell line stably transfected with a cDNA encoding for the human mGlu5a receptor was generated; for the work with mGlu5 Positive Allosteric Modulators (PAMs), a cell line with low receptor expression levels and low constitutive receptor activity was selected to allow the differentiation of agonistic versus PAM activity. […]
Task for the reader: assign each of the following molecules its reported Emax.
Give bare numbers, in %.

Completed entries (count: 7):
| molecule | Emax [%] |
| --- | --- |
| CN1C(=O)[C@@H](c2ccc(C#Cc3ccccc3)cn2)[C@@H]2CCCC[C@@H]21 [Example 36] | 92 |
| CN1C(=O)C(C)(c2ccc(C#Cc3ccccc3)cn2)CC1(C)C (racemic) | 109 |
| CN1C(=O)C(c2ccc(C#Cc3ccccc3)nn2)CC1(C)C (racemic) | 115 |
| CN1C(=O)[C@@H](c2ccc(C#Cc3cccc(F)c3)cn2)[C@@H]2CCC[C@@H]21 (racemic) | 57 |
| CN1C(=O)C(O)(c2ccc(C#Cc3ccccc3)cn2)CC1(C)C (racemic) | 126 |
| CN1C(=O)[C@H](c2ccc(C#Cc3ccnc(Cl)c3)cn2)CC1(C)C (single isomer, unassigned) | 40 |
| COC1(c2ccc(C#Cc3ccccc3)cn2)CC(C)(C)N(C)C1=O (racemic) | 108 |

## Task Identify the measured Emax of CN1C(=O)C(c2ncc(C#Cc3cccc(F)c3)cn2)CC1(C)C (racemic) for human mGlu5a receptor (Homo sapiens (Human)).
## Result 85

* * *

Molecular target: human mGlu5a receptor (Homo sapiens (Human))
Test: Intracellular Ca2+ mobilization assay (mGlu5 PAM)
Assay type: cell-based
Conditions: maximal response in % of the maximal stimulatory effect obtained with saturating concentrations of L-glutamate; read-out: Eff. (%)
assay_readout: Emax (%)
Numbers only, in %.

| molecule | Emax (%) |
| --- | --- |
| CN1C(=O)C(c2ncc(C#Cc3ccccc3)cn2)CC1(C)C (racemic) | 90 |

Batch request: Emax for each of the following molecules.
1. CN1C(=O)C(c2ccc(C#Cc3ccc(F)cc3)nn2)CC1(C)C (centres unmarked)
2. CN1C(=O)C(c2ccc(C#Cc3ccnc(Cl)c3)cn2)CC1(C)C (racemic)
3. CN1C(=O)[C@@H](c2ccc(C#Cc3ccccc3)cn2)[C@@H]2CCC[C@@H]21 (racemic)
4. CN1C(=O)C(C(=O)OCc2ccccc2)(c2ncc(C#Cc3ccccc3)cn2)CC1(C)C (racemic)

## Result
1: 99; 2: 32; 3: 53; 4: 48

* * *

Molecular target: UniProt P41594
Test: Intracellular Ca2+ mobilization assay (mGlu5 PAM)
Format: cell-based
Conditions: HEK-293 cells stably transfected with human mGlu5a; L-glutamate added at EC20 (typically around 80 μM)
assay_readout: EC50 (nM)
Give bare numbers, in nM.

Completed entries (count: 5):
| molecule | EC50 / nM |
| --- | --- |
| CN1C(=O)C(c2ncc(C#Cc3ccccc3)cn2)CCC1(C)C (racemic) | 179 |
| CN1C(=O)C(C(=O)OCc2ccccc2)(c2ncc(C#Cc3ccccc3)cn2)CC1(C)C (racemic) | 528 |
| CN1C(=O)C(c2ncc(C#Cc3ccccc3)cn2)CC1(C)C (racemic) | 130 |
| CN1C(=O)C(O)(c2ccc(C#Cc3ccccc3)cn2)CC1(C)C (racemic) | 414 |
| CN1C(=O)C(c2ncc(C#Cc3ccc(F)cc3)cn2)CCC1(C)C (racemic) | 573 |

Batch request: EC50 for each of the following molecules.
1. CN1C(=O)[C@H](c2ccc(C#Cc3cccc(F)c3)cn2)[C@H]2CCCC[C@H]21
2. CN1C(=O)C(c2ncc(C#Cc3ccc(F)cc3)cn2)CC1(C)C (racemic)

## Result
68
390

## Task Bench note: what EC50 did CN1CCCCC(c2ccc(C#Cc3ccccc3)cn2)C1=O (racemic) show?
## Result 59
